- tested on: ERR1 (also known as ERR-α or ERR-1) (Homo sapiens)
- Sequence (P11474 193-421 limits assumed): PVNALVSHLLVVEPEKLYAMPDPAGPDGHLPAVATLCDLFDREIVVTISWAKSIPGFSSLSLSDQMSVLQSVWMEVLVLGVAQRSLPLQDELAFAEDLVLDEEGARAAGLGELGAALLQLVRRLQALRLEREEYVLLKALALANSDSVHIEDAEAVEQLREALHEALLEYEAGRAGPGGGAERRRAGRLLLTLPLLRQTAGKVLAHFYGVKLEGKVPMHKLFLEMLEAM
- procedure text: TR-FRET assay: disruption of co-activator peptide (GST-hSRC2) binding to 6His-tagged ERR1 LBD
- assay context: 6 nM ERR1LBD, 6 nM GST-SRC-2 peptide, 25° C., 4-18 hours; average of 3 independent experiments
pEC50: −log10 of the molar value.
measured quantity: pEC50

[
  {
    "smiles str": "O=C(O)CNC1=NC(=O)/C(=C/c2ccc3c(cnn3Cc3ccc(Cl)cc3C(F)(F)F)c2)S1",
    "pEC50": 7.64
  },
  {
    "smiles str": "O=C1N=C(N[C@H]2CC[C@@H](C(=O)O)CC2)S/C1=C\\c1ccc2c(cnn2Cc2ccc(Cl)cc2C(F)(F)F)c1",
    "pEC50": 7.82
  },
  {
    "smiles str": "CN(C)CCCNC1=NC(=O)/C(=C/c2ccc3c(cnn3Cc3ccc(C(F)(F)F)cc3C(F)(F)F)c2)S1",
    "pEC50": 7.92
  }
]

A: O=C1N=C(NCc2c[nH]nn2)S/C1=C\c1ccc2c(cnn2Cc2ccc(C(F)(F)F)cc2C(F)(F)F)c1
B: O=C1CN(CCNC2=NC(=O)/C(=C/c3ccc4c(cnn4Cc4ccc(C(F)(F)F)cc4C(F)(F)F)c3)S2)CCN1
C: O=C1N=C(NC2(C(=O)O)CC2)S/C1=C\c1ccc2c(cnn2Cc2ccc(Cl)cc2C(F)(F)F)c1
D: O=C1N=C(NCCC2CCOCC2)S/C1=C\c1ccc2c(cnn2Cc2ccc(C(F)(F)F)cc2C(F)(F)F)c1
QUERY: Rank the items in ascending order with respect to pEC50. The response must list the labels following the requested ordering.
RESULT: D, A, C, B
